Assign shrunken log2 fold change to each entry below.
# System: Escherichia coli TOP10;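 note: peptides expressed intracellularly from a pBAD plasmid library in pooled LB shake-flask culture, induced with 0.3% L-arabinose, DNA abundance read by NGS, three biological replicates, DESeq2 with apeglm shrinkage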
# Assay Name: shrunken log2 fold change of peptide-encoding DNA abundance (4.5 h post-induction vs induction); higher = less antimicrobial activity (less host growth inhibition)
# Test Settings: time post-induction: 4.5 h; library: site-saturation at positions 5, 18, 19, 20
In your answer, state the number alone without any accompanying words.

Data request: Specify measured shrunken log2 fold change for "RRIRSRPPRLPRPRPRPMQFPRP" .
Data returned: 0.0683

Data request: Specify measured shrunken log2 fold change for "RRIRHRPPRLPRPRPRPRVYPRP" .
Data returned: -0.0307

Data request: Specify measured shrunken log2 fold change for "RRIRHRPPRLPRPRPRPSWSPRP" .
Data returned: -0.235

Data request: Specify measured shrunken log2 fold change for "RRIRKRPPRLPRPRPRPESVPRP" .
Data returned: 0.234

Data request: Specify measured shrunken log2 fold change for "RRIRSRPPRLPRPRPRPDAPPRP" .
Data returned: 0.49

Data request: Specify measured shrunken log2 fold change for "RRIRTRPPRLPRPRPRPYCFPRP" .
Data returned: -0.301

Data request: Specify measured shrunken log2 fold change for "RRIRTRPPRLPRPRPRPPCKPRP" .
Data returned: -0.193

Data request: Specify measured shrunken log2 fold change for "RRIRDRPPRLPRPRPRPDMSPRP" .
Data returned: -0.0165

Data request: Specify measured shrunken log2 fold change for "RRIRSRPPRLPRPRPRPPEAPRP" .
Data returned: 0.854

Data request: Specify measured shrunken log2 fold change for "RRIRPRPPRLPRPRPRPTHRPRP" .
Data returned: 0.223

Data request: Specify measured shrunken log2 fold change for "RRIRTRPPRLPRPRPRPNIKPRP" .
Data returned: -0.828

Data request: Specify measured shrunken log2 fold change for "RRIRFRPPRLPRPRPRPVKWPRP" .
Data returned: 0.0401

Data request: Specify measured shrunken log2 fold change for "RRIRERPPRLPRPRPRPDWQPRP" .
Data returned: -0.552

Data request: Specify measured shrunken log2 fold change for "RRIRDRPPRLPRPRPRPECEPRP" .
Data returned: 1.53

Data request: Specify measured shrunken log2 fold change for "RRIRYRPPRLPRPRPRPILFPRP" .
Data returned: -0.945

Data request: Specify measured shrunken log2 fold change for "RRIRWRPPRLPRPRPRPIWNPRP" .
Data returned: -0.114

Data request: Specify measured shrunken log2 fold change for "RRIRGRPPRLPRPRPRPDVLPRP" .
Data returned: 0.246

Data request: Specify measured shrunken log2 fold change for "RRIRFRPPRLPRPRPRPRDLPRP" .
Data returned: -0.00831

Data request: Specify measured shrunken log2 fold change for "RRIRDRPPRLPRPRPRPMCHPRP" .
Data returned: 0.216

Data request: Specify measured shrunken log2 fold change for "RRIRFRPPRLPRPRPRPATKPRP" .
Data returned: 0.217

Data request: Specify measured shrunken log2 fold change for "RRIRNRPPRLPRPRPRPEKYPRP" .
Data returned: -0.805

Data request: Specify measured shrunken log2 fold change for "RRIRFRPPRLPRPRPRPWVNPRP" .
Data returned: -0.753

Data request: Specify measured shrunken log2 fold change for "RRIRWRPPRLPRPRPRPNWVPRP" .
Data returned: 0.0816

Data request: Specify measured shrunken log2 fold change for "RRIRDRPPRLPRPRPRPRMRPRP" .
Data returned: 0.984

Data request: Specify measured shrunken log2 fold change for "RRIRLRPPRLPRPRPRPDTNPRP" .
Data returned: -0.103

Data request: Specify measured shrunken log2 fold change for "RRIRLRPPRLPRPRPRPQHDPRP" .
Data returned: -0.0854

Data request: Specify measured shrunken log2 fold change for "RRIRPRPPRLPRPRPRPNIGPRP" .
Data returned: 0.0125

Data request: Specify measured shrunken log2 fold change for "RRIRSRPPRLPRPRPRPEEIPRP" .
Data returned: -0.00908

Data request: Specify measured shrunken log2 fold change for "RRIRDRPPRLPRPRPRPILGPRP" .
Data returned: -0.0116

Data request: Specify measured shrunken log2 fold change for "RRIRFRPPRLPRPRPRPLIAPRP" .
Data returned: -0.234

Data request: Specify measured shrunken log2 fold change for "RRIRNRPPRLPRPRPRPAEKPRP" .
Data returned: 0.0519

Data request: Specify measured shrunken log2 fold change for "RRIRLRPPRLPRPRPRPHSNPRP" .
Data returned: -0.443

Data request: Specify measured shrunken log2 fold change for "RRIRVRPPRLPRPRPRPAITPRP" .
Data returned: -0.142

Data request: Specify measured shrunken log2 fold change for "RRIRLRPPRLPRPRPRPWAEPRP" .
Data returned: 0.13

Data request: Specify measured shrunken log2 fold change for "RRIRERPPRLPRPRPRPIEQPRP" .
Data returned: -0.00133

Data request: Specify measured shrunken log2 fold change for "RRIRHRPPRLPRPRPRPDVQPRP" .
Data returned: 0.0591

Data request: Specify measured shrunken log2 fold change for "RRIRHRPPRLPRPRPRPGRHPRP" .
Data returned: -0.0683

Data request: Specify measured shrunken log2 fold change for "RRIRSRPPRLPRPRPRPGKTPRP" .
Data returned: -0.112

Data request: Specify measured shrunken log2 fold change for "RRIRFRPPRLPRPRPRPMRNPRP" .
Data returned: 0.92

Data request: Specify measured shrunken log2 fold change for "RRIRCRPPRLPRPRPRPEQHPRP" .
Data returned: 0.0913

Data request: Specify measured shrunken log2 fold change for "RRIRERPPRLPRPRPRPFYYPRP" .
Data returned: -0.618

Data request: Specify measured shrunken log2 fold change for "RRIRIRPPRLPRPRPRPASYPRP" .
Data returned: -0.0337

Data request: Specify measured shrunken log2 fold change for "RRIRPRPPRLPRPRPRPFQSPRP" .
Data returned: 0.0035

Data request: Specify measured shrunken log2 fold change for "RRIRHRPPRLPRPRPRPLYQPRP" .
Data returned: -0.112

Data request: Specify measured shrunken log2 fold change for "RRIRYRPPRLPRPRPRPGDPPRP" .
Data returned: -0.223

Data request: Specify measured shrunken log2 fold change for "RRIRTRPPRLPRPRPRPVIPPRP" .
Data returned: -0.133

Data request: Specify measured shrunken log2 fold change for "RRIRFRPPRLPRPRPRPFDTPRP" .
Data returned: -0.486

Data request: Specify measured shrunken log2 fold change for "RRIRRRPPRLPRPRPRPIWLPRP" .
Data returned: 0.0778

Data request: Specify measured shrunken log2 fold change for "RRIRMRPPRLPRPRPRPYKAPRP" .
Data returned: 0.00361

Data request: Specify measured shrunken log2 fold change for "RRIRSRPPRLPRPRPRPEKSPRP" .
Data returned: -0.32

Data request: Specify measured shrunken log2 fold change for "RRIRLRPPRLPRPRPRPKVDPRP" .
Data returned: -0.00247

Data request: Specify measured shrunken log2 fold change for "RRIRTRPPRLPRPRPRPYITPRP" .
Data returned: -1.19

Data request: Specify measured shrunken log2 fold change for "RRIRHRPPRLPRPRPRPADWPRP" .
Data returned: 0.0838

Data request: Specify measured shrunken log2 fold change for "RRIRIRPPRLPRPRPRPMYFPRP" .
Data returned: -0.609

Data request: Specify measured shrunken log2 fold change for "RRIRSRPPRLPRPRPRPCHQPRP" .
Data returned: -0.0637

Data request: Specify measured shrunken log2 fold change for "RRIRLRPPRLPRPRPRPNSLPRP" .
Data returned: -0.101

Data request: Specify measured shrunken log2 fold change for "RRIRNRPPRLPRPRPRPPGFPRP" .
Data returned: 1.54

Data request: Specify measured shrunken log2 fold change for "RRIRHRPPRLPRPRPRPPYWPRP" .
Data returned: 1.65

Data request: Specify measured shrunken log2 fold change for "RRIRDRPPRLPRPRPRPKKRPRP" .
Data returned: 0.403

Data request: Specify measured shrunken log2 fold change for "RRIRIRPPRLPRPRPRPRRLPRP" .
Data returned: -0.0824

Data request: Specify measured shrunken log2 fold change for "RRIRQRPPRLPRPRPRPQNAPRP" .
Data returned: -0.198

Data request: Specify measured shrunken log2 fold change for "RRIRNRPPRLPRPRPRPYFHPRP" .
Data returned: -0.474

Data request: Specify measured shrunken log2 fold change for "RRIRFRPPRLPRPRPRPIACPRP" .
Data returned: -0.0937
